TGI values by entry
# Test system: U251 CNS
# Assay Overview: NCI tumour cell line growth inhibition, 48 h

Compound: O=c1nc2c(c(-c3ccc(F)cc3)[nH]1)COC/C2=C\c1ccc(F)cc1
TGI: > 100 µM

Compound: O=C1Nc2ccccc2/C1=C\c1c(-c2ccccc2)nc2n1CCS2
TGI: 45.3 µM

Compound: CC(=O)OCC1OC([Se-])C(OC(C)=O)C(OC(C)=O)C1OC(C)=O.N#CCC[PH+](CCC#N)CCC#N.[Au+] (centres undefined)
TGI: > 48.8 µM

Compound: O=C1/C(=C\c2ccccc2)CN(C(=O)c2ccccc2)C/C1=C\c1ccccc1
TGI: 4.44 µM

Compound: CC(C)COP(C)(=O)C(N)(C(F)(F)F)C(F)(F)F (centres undefined)
TGI: > 100 µM

Compound: COc1ccc(C2CC(c3ccc4ccccc4c3)=NN2c2nc(O)c(C3=c4cc(OC)ccc4=NC3=O)s2)cc1 (centres undefined)
TGI: 0.0975 µM

Compound: COC(=O)c1ccc(C)cc1C1CN=NC12Cc1cc(C)ccc1C2=O (centres undefined)
TGI: > 70.6 µM

Compound: COc1ccc(-c2coc3cc(O)cc(O)c3c2=O)cc1
TGI: > 10 µM

Compound: CCCCCCc1cc2cc(-c3csc(/C=C/c4ccccc4)n3)c(=O)oc2cc1O
TGI: 10.5 µM

Compound: CN1C(C)(C)CC(=O)C(Br)C1(C)C (centres undefined)
TGI: > 100 µM

Compound: COc1ccc(-n2c(Cn3nnc(-c4cccnc4)n3)nn(C3OC(COC(=O)c4ccccc4)C(OC(=O)c4ccccc4)C3OC(=O)c3ccccc3)c2=S)cc1 (centres undefined)
TGI: > 100 µM

Compound: O=C1C=CC(=O)N1c1ccc(I)cc1
TGI: > 54.9 µM

Compound: CCN1C(=O)N(CC)C2C1NC(=S)N2/N=C/C=C/c1ccccc1OC (centres undefined)
TGI: > 100 µM

Compound: CCC(C)CC(C)C(=O)c1c(O)ccn(O)c1=O (centres undefined)
TGI: > 100 µM

Compound: CCc1nc2ccccc2c(=O)n1/N=C(\N=Nc1ccc(Cl)cc1)c1ccccc1
TGI: > 87.8 µM

Compound: O=C(O)C1=CN(c2ccncc2)C(c2ccco2)=CC1c1ccccc1[N+](=O)[O-] (centres undefined)
TGI: 24.2 µM

Compound: CC1=NC=C(O)c2ccccc2O1
TGI: > 100 µM

Compound: [N-]=[N+]=CC(=O)OCC1NC(=O)C(COC(=O)C=[N+]=[N-])NC1=O (centres undefined)
TGI: > 100 µM

Compound: C=CCC12CCC(=O)[C@@]1(C)CC=C(O)C2=O (some centres undefined)
TGI: > 100 µM

Compound: CN1CCN(c2ccc3[nH]c(C4=C(O)C(=O)[C@@H]5C(=C4O)N=C(CO)N5C)nc3n2)CC1
TGI: > 100 µM

Compound: CCCn1c(=O)c2nn3c(=O)n(CCC)c(=O)c3nn2c1=O
TGI: > 100 µM

Compound: Cc1ccc(S(=O)(=O)ON2C(=O)c3c(N)c(C#N)c(-c4ccccc4)c(-c4ccccc4)c3C2=O)cc1
TGI: 30.6 µM

Compound: Cc1cc(C(O)(c2ccc(Nc3ccccc3)cc2)c2ccc(Nc3ccc(S(=O)(=O)O)cc3)cc2)ccc1N (centres undefined)
TGI: 2.05 µM

Compound: COc1cc(C2C(C(=O)O)=C(COC(C)=O)Oc3cc4c(cc32)OCO4)cc(OC)c1OC(C)=O (centres undefined)
TGI: > 100 µM

Compound: N#CCC1C2CC3C(C2=O)C13 (centres undefined)
TGI: > 100 µM

Compound: O=Cc1ccc(-c2ccc(-c3ccc(C=O)o3)[se]2)o1
TGI: > 100 µM

Compound: CC1(C)OC2C(CO)OC(n3ccc(N)nc3=O)C2O1 (centres undefined)
TGI: > 100 µM

Compound: CC(=O)N=c1ccc2nc(N)nn(O)c-2c1
TGI: > 100 µM

Compound: O=C1CCCCC1C(O)(C(F)(F)F)C(F)(F)Cl (centres undefined)
TGI: > 10 µM

* * *

# System: SNB-75 CNS
# Assay Overview: NCI tumour cell line growth inhibition, 48 h
Quantity Measured: TGI (µM)

Compound: CCCn1c(=O)c2nn3c(=O)n(CCC)c(=O)c3nn2c1=O
Quantity Measured: TGI
Result Operator: >
Reading: 100

Compound: C/C(=N/NC(=S)N1CC2CCC(CC2)C1)c1cnccn1
Quantity Measured: TGI
Result Operator: =
Reading: 7.02

Compound: O=C1CCCCC1C(O)(C(F)(F)F)C(F)(F)Cl (centres undefined)
Quantity Measured: TGI
Result Operator: >
Reading: 10

Compound: COc1ccc(C2CC(c3ccc4ccccc4c3)=NN2c2nc(O)c(C3=c4cc(OC)ccc4=NC3=O)s2)cc1 (centres undefined)
Quantity Measured: TGI
Result Operator: =
Reading: 0.445

* * *

# System: HT29 colon
# Assay Overview: NCI tumour cell line growth inhibition, 48 h
TGI values by entry

Compound: CCN(CC)C(=S)N/N=C/c1cc(OC)ccc1O
TGI: > 100 µM

Compound: O=C1NC(=O)C(c2ccccc2)=C1Nc1ccccc1
TGI: > 25 µM

Compound: CS(=N)(=O)CCC(N)P(=O)(O)O (configuration not stated)
TGI: > 100 µM

Compound: CCOC(=O)Nc1n[nH]nc1Cl
TGI: > 100 µM

Compound: COc1ccc2[nH]c3c4c(cc(-c5ccccc5)c3c2c1)C(=O)N(c1ccccc1)C4=O
TGI: > 100 µM

Compound: COC1=CC(=O)OC(/C=C(C)/C=C/C2=C(C)CCCC2(C)C)C1 (configuration not stated)
TGI: > 100 µM

Compound: O=C1CCSc2nc(-c3ccc4c(c3)OCO4)nn21
TGI: > 10 µM

Compound: CC1CCC2CC1NC(=O)CCOCCC(=O)NC2(C)C (configuration not stated)
TGI: > 100 µM

Compound: CC(Cc1cccc2c1Nc1ccccc1S2)N(C)CCO (configuration not stated)
TGI: > 100 µM

Compound: CC(=O)SC(SC(C)=O)SC(C)=O
TGI: > 100 µM

Compound: CCC(c1ccc(OC)cc1)C1NC(=S)NC1=O (configuration not stated)
TGI: > 50 µM

Compound: COc1ccc(/C=C/C(=O)c2ccc(Nc3nc(Nc4ccc(F)cc4)nc(Nc4ccc(Cl)cc4)n3)cc2)cc1
TGI: > 100 µM

* * *

# Test system: MDA-MB-231 breast
# Assay Overview: NCI tumour cell line growth inhibition, 48 h
TGI values by entry
Quantity Measured: TGI

Compound: O=C(c1ccccc1)C(Nc1ccc2ccccc2c1)c1ccccc1 (configuration not stated)
Reading: > 100 µM
--
Compound: N#Cc1c2ccccc2c2nnc3ccc(C(F)(F)F)cc3n12
Reading: > 100 µM
--
Compound: Cc1cccc2c1c(=O)c1c(O)cc3c(c1n2C)C=CC(C)(C)O3
Reading: > 100 µM
--
Compound: O=C(O)c1ccc(C(=O)O)c(C(=O)O)c1.[NH-]C1CCCCC1[NH-].[Pt+2]
Reading: > 73.6 µM
--
Compound: CCOC(=O)C1(C#N)C(C#N)(C#N)C1(C#N)C#N
Reading: > 100 µM
--
Compound: CC(C)OC(=O)NNc1cccc(Cl)c1
Reading: > 100 µM
--
Compound: COc1ccccc1N1C(=O)CSC1c1cc(OC)c(OC)c(OC)c1 (configuration not stated)
Reading: > 100 µM
--
Compound: N#CCC1C2CC3C(C2=O)C13 (configuration not stated)
Reading: > 100 µM
--
Compound: CC(C)CC(NC=O)C(=O)NC(Cc1ccccc1)NC(=O)CNC(=O)C(C)NC(=O)C(N)Cc1ccc(O)cc1 (configuration not stated)
Reading: > 100 µM
--
Compound: COc1ccc(-n2c(Cn3nnc(-c4cccnc4)n3)nn(C3OC(COC(=O)c4ccccc4)C(OC(=O)c4ccccc4)C3OC(=O)c3ccccc3)c2=S)cc1 (configuration not stated)
Reading: > 100 µM
--
Compound: CCC(c1ccc(OC)cc1)C1NC(=S)NC1=O (configuration not stated)
Reading: > 50 µM
--
Compound: CCCCCCCc1cscc1-c1cscc1Br
Reading: > 100 µM

* * *

TGI values by entry
# System: UO-31 renal
# Assay Overview: NCI tumour cell line growth inhibition, 48 h

Molecule: CCCCCCCCCC/C=C/C=O
TGI: > 100 µM
//
Molecule: COc1ccc(/C=C/C(=O)c2ccc(Nc3nc(Nc4ccc(F)cc4)nc(Nc4ccc(Cl)cc4)n3)cc2)cc1
TGI: > 100 µM
//
Molecule: FC(F)(F)c1cc(-c2ncn(/C=C\c3nnco3)n2)cc(C(F)(F)F)c1
TGI: > 100 µM
//
Molecule: O=C1NC(=O)C(c2ccccc2)=C1Nc1ccccc1
TGI: > 25 µM
//
Molecule: Cc1[nH]c2nc3c(ncn3COCCO)c(=O)n2c1C(c1ccccc1)(c1ccccc1)c1ccccc1
TGI: > 76.1 µM
//
Molecule: O=C1Oc2cc3c(c4cccc1c24)OCN(c1ccccc1)C3
TGI: > 100 µM
//
Molecule: CCN1C(=O)N(CC)C2C1NC(=S)N2/N=C/C=C/c1ccccc1OC (stereo not drawn)
TGI: > 87.5 µM
//
Molecule: CCCCN(CCCC)CC(C(=O)Nc1ccc([N+](=O)[O-])cc1[N+](=O)[O-])/C(C)=N\NC(=O)C[N+](C)(C)C (stereo not drawn)
TGI: > 100 µM
//
Molecule: OCC1OC(n2cnc3c(SCc4ccccc4)ncnc32)C(O)C1O (stereo not drawn)
TGI: > 100 µM
//
Molecule: OCCCc1cnco1
TGI: > 100 µM
//
Molecule: COCC12CCC(OC)C34C5CC6(O)C(OC)C=C(C5C6OC(=O)c5ccccc5)C(C(OC)C13)C4N(C)C2 (stereo not drawn)
TGI: > 100 µM
//
Molecule: COc1cc2cc3c4cc(OC)c(OC)cc4cc[n+]3c(C)c2cc1OC
TGI: > 100 µM
//
Molecule: COc1ccc2[nH]c3c4c(cc(-c5ccccc5)c3c2c1)C(=O)N(c1ccccc1)C4=O
TGI: > 72 µM
//
Molecule: O=C1CC(C(OCc2ccccc2)C(OCc2ccccc2)C(OCc2ccccc2)C(COCc2ccccc2)OCc2ccccc2)CC(=O)N1 (stereo not drawn)
TGI: > 100 µM
//
Molecule: Cn1nc(-c2ccccc2)c2c(-c3ccccc3)c3cc(Cl)ccc3nc21
TGI: > 100 µM
//
Molecule: CO[C@H]1O[C@@H]2OC3(C)CCC4[C@H](C)CCC([C@H]1C)[C@]42OO3 (stereo partly drawn)
TGI: > 100 µM
//
Molecule: Cc1ccc(SCC(CF)OC(C)n2cnc3c(Cl)nc(N)nc32)cc1 (stereo not drawn)
TGI: > 100 µM
//
Molecule: COc1ccccc1N1C(=O)CSC1c1cc(OC)c(OC)c(OC)c1 (stereo not drawn)
TGI: > 100 µM
//
Molecule: CCOC(=O)c1cn(CC)c2ccc3ccsc3c2c1=O
TGI: > 100 µM
//
Molecule: CC(=O)CC(=O)NC=O
TGI: > 100 µM
//
Molecule: CCOC(=O)C1(C#N)C(C#N)(C#N)C1(C#N)C#N
TGI: > 100 µM
//
Molecule: O=C(CCc1ccc(O)c(O)c1)NCCc1cc(O)c(O)c(O)c1
TGI: > 100 µM
//
Molecule: O=c1oc2ccc3ccccc3c2cc1-c1cn2c(n1)sc1ccccc12
TGI: > 100 µM

// provenance: PubChem BioAssay (NCI)
